Below, each of the molecules is paired with its reported inhibition at 0.1 µM value.
Target Entity: recombinant human PAI-1 (Homo sapiens)
Sequence (P05121 24-402): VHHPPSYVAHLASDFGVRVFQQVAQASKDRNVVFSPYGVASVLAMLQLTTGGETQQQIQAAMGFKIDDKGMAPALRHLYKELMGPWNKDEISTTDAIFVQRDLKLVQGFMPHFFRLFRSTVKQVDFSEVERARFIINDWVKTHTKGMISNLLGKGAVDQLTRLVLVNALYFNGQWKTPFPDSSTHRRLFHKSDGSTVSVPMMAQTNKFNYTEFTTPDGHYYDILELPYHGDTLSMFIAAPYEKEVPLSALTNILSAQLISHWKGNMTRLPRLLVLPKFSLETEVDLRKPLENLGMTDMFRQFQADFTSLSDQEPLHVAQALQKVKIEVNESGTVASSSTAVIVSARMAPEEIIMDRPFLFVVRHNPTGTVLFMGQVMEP
Test Details: Test Example 2: Human PAI-1 Inhibitory Activity (pH 7.4 HEPES buffer, 10 minutes incubation with two-chain tPA)
Format: biochemical
Parameters: purchased Molecular Innovations, Inc
Condition Set: read-out: Inhibition Rate of PAI-1 Activity (%)
Number in %, nothing else.

| Molecule | inhibition at 0.1 µM [%] |
| --- | --- |
| CCCCCCCOc1cc(-c2ccc(OC(F)(F)F)cc2)cc(OCCCCCCC)c1OCC(=O)O | 17 |

Problem: Find inhibition at 0.1 µM for CCCCCOc1ccc(-c2ccc(OC(F)(F)F)cc2)cc1CN(C(=O)C(=O)O)c1ccc(C(C)(C)C)cc1 on recombinant human PAI-1 (Homo sapiens) and write it down.
Result: 6

Problem: Find inhibition at 0.1 µM for CCCCCN(C(=O)C(=O)O)c1cc(-c2ccc(OC(F)(F)F)cc2)ccc1OCCCOc1ccccc1 on recombinant human PAI-1 (Homo sapiens) and write it down.
Result: 15

Problem: Find inhibition at 0.1 µM for CCCCCOc1cc(-c2cccc(C(F)(F)F)c2)ccc1N(CCCCc1ccccc1)C(=O)C(=O)O on recombinant human PAI-1 (Homo sapiens) and write it down.
Result: 1

Problem: Find inhibition at 0.1 µM for CCN(CC)c1ccc(N(CCCc2ccccc2)C(=O)C(=O)O)c(-c2ccc(OC(F)(F)F)cc2)c1 on recombinant human PAI-1 (Homo sapiens) and write it down.
Result: 0

Problem: Find inhibition at 0.1 µM for CC(C)(C)c1cccc(Oc2cc(-c3ccc(OC(F)(F)F)cc3)ccc2/C=C/C(=O)O)c1 on recombinant human PAI-1 (Homo sapiens) and write it down.
Result: 4

Problem: Find inhibition at 0.1 µM for CCCCC(Oc1ccc(-c2cccc(C(F)(F)F)c2)cc1Oc1ccc(C(C)(C)C)cc1)C(=O)O (stereo not shown) on recombinant human PAI-1 (Homo sapiens) and write it down.
Result: 1
